biological target: human recombinant collagenase (Homo sapiens, UniProt P03956); assay: Collagenase inhibition assay (Cawston and Barrett); details: acetylated 3H type 1 bovine collagen, 37° C., 18 h
Sequence (P03956 100-469): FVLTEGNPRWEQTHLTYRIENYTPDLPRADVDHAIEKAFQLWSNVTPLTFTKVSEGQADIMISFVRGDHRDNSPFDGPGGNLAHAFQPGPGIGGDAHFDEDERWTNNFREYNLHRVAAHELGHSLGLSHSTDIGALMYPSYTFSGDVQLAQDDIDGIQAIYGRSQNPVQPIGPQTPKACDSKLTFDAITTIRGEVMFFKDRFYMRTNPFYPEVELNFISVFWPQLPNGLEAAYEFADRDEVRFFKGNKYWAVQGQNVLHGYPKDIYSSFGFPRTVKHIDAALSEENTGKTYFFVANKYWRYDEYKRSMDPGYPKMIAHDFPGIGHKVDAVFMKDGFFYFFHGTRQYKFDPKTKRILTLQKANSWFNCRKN
pIC50: −log10 of the molar value.
Item-by-item account of pIC50
measure: pIC50

>>> observed_value("CC(C)c1ccc([C@@H](NS(=O)(=O)Cc2ccc3sccc3c2)C(=O)NO)cc1 [Example 56]")
"≤ 5.00"
>>> observed_value("CC(C)(C)[C@@H](NS(=O)(=O)Cc1ccc2sccc2c1)C(=O)NO [Example 43]")
"≤ 5.00"
>>> observed_value("O=C(NO)[C@H](NS(=O)(=O)C[C@@H]1CCc2ccccc2C1)c1ccccc1 [Example 29]")
"≤ 5.00"
>>> observed_value("O=C(NO)[C@@H](CC1CCCCC1)NS(=O)(=O)Cc1ccc2ccccc2c1 [Example 9]")
"≤ 5.00"
>>> observed_value("O=C(NO)[C@H](NS(=O)(=O)Cc1ccc2sccc2c1)c1ccc(O)cc1 [Example 33]")
"≤ 5.00"
>>> observed_value("O=C(NO)[C@@H](Cc1c[nH]c2ccccc12)NS(=O)(=O)Cc1ccc2sccc2c1 [Example 31]")
"≤ 5.00"
>>> observed_value("O=C(NO)[C@H](NS(=O)(=O)Cc1ccc2sccc2c1)c1ccccc1 [Example 28]")
"≤ 5.00"
>>> observed_value("O=C(NO)[C@H](NS(=O)(=O)Cc1ccc2ccccc2c1)c1ccc(O)cc1 [Example 12]")
"≤ 5.00"

Ref: patent US20030199571A1
